Collected Kd values appear next to each entry.
assay-system: T1, recombinant human activated Factor VII (FVIIa) (human, UniProt P08709 61-212; P08709 213-466, ten glutamate residues of the Gla domain may be gamma-carboxylated)
T1 construct: chains tethered by a disulfide bond; also called Factor VIIa; rFVIIa
T1 sequence 1: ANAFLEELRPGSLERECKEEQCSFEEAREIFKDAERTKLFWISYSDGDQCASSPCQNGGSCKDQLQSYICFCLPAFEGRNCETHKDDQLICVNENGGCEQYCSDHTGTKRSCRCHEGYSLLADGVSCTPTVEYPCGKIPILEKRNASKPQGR
T1 sequence 2: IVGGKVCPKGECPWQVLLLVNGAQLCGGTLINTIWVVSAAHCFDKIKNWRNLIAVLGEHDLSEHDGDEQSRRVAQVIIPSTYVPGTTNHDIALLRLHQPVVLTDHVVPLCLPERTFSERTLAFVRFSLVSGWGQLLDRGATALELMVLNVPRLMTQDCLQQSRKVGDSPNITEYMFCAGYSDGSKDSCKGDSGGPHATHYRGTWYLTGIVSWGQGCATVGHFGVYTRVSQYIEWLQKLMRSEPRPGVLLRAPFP
assay-info: BLI (Fortebio)
Give the quantity in nM, number only.

Solved cases (4 shown):
binder	measurement-units	meas-value
VH SEQ ID NO 650 / VL SEQ ID NO 430 (antibody, IgG4, V domains shown, humanized 11F2; IgG4 S228P/kappa) VH: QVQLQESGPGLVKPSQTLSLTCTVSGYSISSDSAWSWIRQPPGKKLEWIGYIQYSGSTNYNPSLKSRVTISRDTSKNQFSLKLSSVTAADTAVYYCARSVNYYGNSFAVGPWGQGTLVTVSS VL: EIVLTQSPATLSLSPGERATLSCRASQGVSDYLAWYQQKPGQAPRLLIKYASQPATGIPARFSGSGSGTDFTLTISSLEPEDFGVYYCQNGHSFPLTFGQGTKLEIK	nM	28
VH SEQ ID NO 634 / VL SEQ ID NO 406 (antibody, IgG4, V domains shown, humanized 11F2; IgG4 S228P/kappa) VH: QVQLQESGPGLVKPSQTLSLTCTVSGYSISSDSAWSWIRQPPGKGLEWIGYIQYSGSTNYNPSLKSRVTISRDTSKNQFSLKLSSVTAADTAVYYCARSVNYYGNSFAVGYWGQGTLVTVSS VL: EIVLTQSPATLSLSPGERATLSCRASQGVSDYLAWYQQKPGQAPRLLIKYASQPATGIPARFSGSGSGTDFTLTISSLEPEDFAVYYCQNGHSFPLTFGAGTKLEIK	nM	4.2
VH SEQ ID NO 626 / VL SEQ ID NO 366 (antibody, IgG4, V domains shown, humanized 11F2; IgG4 S228P/kappa) VH: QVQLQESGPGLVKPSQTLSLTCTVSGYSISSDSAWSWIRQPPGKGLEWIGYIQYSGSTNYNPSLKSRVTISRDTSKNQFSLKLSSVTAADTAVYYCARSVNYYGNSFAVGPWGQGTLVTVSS VL: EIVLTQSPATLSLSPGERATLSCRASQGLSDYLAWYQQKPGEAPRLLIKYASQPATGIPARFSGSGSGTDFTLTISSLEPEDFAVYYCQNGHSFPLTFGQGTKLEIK	nM	87
VH SEQ ID NO 578 / VL SEQ ID NO 326 (antibody, IgG4, V domains shown, humanized 11F2; IgG4 S228P/kappa) VH: QVQLQESGPGLVKPSDTLSLTCAVSGYSISSDSAWSWIRQPPGKGLEWIGYIQYSGSTNYNPSLKSRVTMSVDTSKNQFSLKLSSVTALDTAVYYCARSVNYYGNSFAVGPWGQGTLVTVSS VL: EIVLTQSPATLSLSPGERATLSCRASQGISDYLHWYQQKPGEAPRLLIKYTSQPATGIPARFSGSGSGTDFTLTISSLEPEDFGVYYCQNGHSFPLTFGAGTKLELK	nM	16

Switching to the query record.
State its Kd for this binder: VH SEQ ID NO 570 / VL SEQ ID NO 430 (antibody, IgG4, V domains shown, humanized 11F2; IgG4 S228P/kappa) VH: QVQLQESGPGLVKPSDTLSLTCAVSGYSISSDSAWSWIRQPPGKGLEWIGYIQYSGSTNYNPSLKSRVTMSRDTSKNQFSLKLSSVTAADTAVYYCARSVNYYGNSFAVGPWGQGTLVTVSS VL: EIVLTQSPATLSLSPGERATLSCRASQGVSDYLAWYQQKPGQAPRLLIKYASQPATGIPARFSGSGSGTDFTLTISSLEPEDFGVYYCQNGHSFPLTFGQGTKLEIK
16
